Catalogue of Ki values
Target: recombinant HIV-1 protease (Human immunodeficiency virus type 1 group M subtype B)
Construct: recombinant HIV-1 protease (final concentration 2.18 nM) purchased from Bachem Bioscience; purchased Bachem Bioscience
Experiment: Enzymatic fluorometric (FRET) assay for determining the inhibition constant (Ki) against HIV protease
Type: biochemical
Conditions: Ki (nM)
measuredMetric: Ki (nM)

molecule: CC(C)CN([C@@H](CCCCNC(=O)OCC1c2ccccc2-c2ccccc21)C(=O)O)S(=O)(=O)c1ccc(C(C)(C)C)cc1 [Compound 10]
resultUnits: nM
relationOperator: =
dataValue: 257
--
molecule: Cc1ccc(S(=O)(=O)N(CC(C)C)C(CCCNC(=O)OCC2c3ccccc3-c3ccccc32)C(=O)O)cc1 (racemic) [Compound 6]
resultUnits: nM
relationOperator: =
dataValue: 180
--
molecule: Cc1ccc(S(=O)(=O)N(CC(C)C)C(CCCCN(CC(C)C)C(=O)CCc2ccccc2)C(=O)O)cc1 (racemic) [Compound 159]
resultUnits: nM
relationOperator: >
dataValue: 300
--
molecule: CC(C)(C)OC(=O)N[C@@H](CCCCNC(=O)OCC1c2ccccc2-c2ccccc21)C(=O)O [Compound 138]
resultUnits: nM
relationOperator: >
dataValue: 200
--
molecule: Cc1ccc(S(=O)(=O)N(CC2CC2)[C@@H](CCCCNC(=O)OCC2c3ccccc3-c3ccccc32)C(=O)O)cc1 [Compound 43]
resultUnits: nM
relationOperator: =
dataValue: 3.9
--
molecule: Cc1ccc(S(=O)(=O)N(CC(C)C)[C@@H](CCCCNC(=O)OCC2c3ccccc3-c3ccccc32)C(=O)O)cc1 [Compound 67]
resultUnits: nM
relationOperator: =
dataValue: 4.3
--
molecule: O=C(NCCCC[C@H](NC(=O)OCC1c2ccccc2-c2ccccc21)C(=O)O)OCC1c2ccccc2-c2ccccc21 [Compound 71]
resultUnits: nM
relationOperator: =
dataValue: 44800
--
molecule: CC(C)CN(C(CCCCNC(=O)OCc1ccccc1)C(=O)O)S(=O)(=O)c1ccc(Br)cc1 (stereo not drawn) [Compound 67]
resultUnits: nM
relationOperator: >
dataValue: 100
--
molecule: Cc1ccc(S(=O)(=O)N(CC(C)C)C(CCCCNC(=O)OCC2c3ccccc3-c3ccccc32)C(=O)O)cc1 (racemic) [Compound 2]
resultUnits: nM
relationOperator: =
dataValue: 5

----------
Target: recombinant HIV-1 protease (Human immunodeficiency virus type 1 group M subtype B)
Construct: recombinant HIV-1 protease (final concentration 2.18 nM) purchased from Bachem Bioscience; purchased Bachem Bioscience
Assay: Enzymatic fluorometric (FRET) assay for determining the inhibition constant (Ki) against HIV protease
Type: biochemical
Settings: fluorometric FRET assay, recombinant HIV-1 protease, pH 4.7, 31° C.; read-out: Ki

compound: O=C(O)[C@H](CCCNS(=O)(=O)c1ccc(Br)cc1)NS(=O)(=O)c1ccc(Br)cc1 [Compound 57]
relationOperator: =
Ki (nM): 42400
//
compound: COc1ccc(C=CC(=O)NCCCC[C@@H](C(=O)O)N(CC(C)C)S(=O)(=O)c2ccc([N+](=O)[O-])cc2)cc1 [Compound 113]
relationOperator: >
Ki (nM): 300
//
compound: O=C(N[C@@H](CCCCNS(=O)(=O)c1ccc(Br)cc1)C(=O)O)C(c1ccccc1)c1ccccc1 [Compound 36]
relationOperator: =
Ki (nM): 24000
//
compound: COc1cccc(C=CC(=O)NCCCC[C@@H](C(=O)O)N(CC(C)C)S(=O)(=O)c2ccc([N+](=O)[O-])cc2)c1 [Compound 162]
relationOperator: >
Ki (nM): 300
//
compound: Cc1ccc(S(=O)(=O)N(Cc2ccccc2)[C@@H](CCCCNC(=O)OCC2c3ccccc3-c3ccccc32)C(=O)O)cc1 [Compound 40]
relationOperator: =
Ki (nM): 19.6
//
compound: Cc1ccc(S(=O)(=O)N(CC(C)C)[C@@H](CCCCNC(=O)OCc2ccccc2)C(=O)OCc2ccccc2)cc1 [Compound 75]
relationOperator: >
Ki (nM): 1250
//
compound: CC(C)CN([C@@H](CCCCNC(=O)CCc1cccc(N)c1)C(=O)O)S(=O)(=O)c1ccc(N)cc1 [Compound 118]
relationOperator: =
Ki (nM): 20.5

----------
Biological target: recombinant HIV-1 protease (Human immunodeficiency virus type 1 group M subtype B)
Construct: recombinant HIV-1 protease (final concentration 2.18 nM) purchased from Bachem Bioscience; purchased Bachem Bioscience
Assay: Enzymatic fluorometric (FRET) assay for determining the inhibition constant (Ki) against HIV protease
Assay type: biochemical
Conditions: recombinant HIV-1 protease 2.18 nM, substrate H-2930 10 μM, pH 4.7, 31° C., Henderson equation; read-out: Ki

molecule: Cc1ccc(S(=O)(=O)N(CC(C)C)C(CNCCNC(=O)CCc2ccccc2)C(=O)O)cc1 (stereo not shown) [Compound 206]
Ki: > 300 nM

----------
Target: recombinant HIV-1 protease (Human immunodeficiency virus type 1 group M subtype B)
Construct: recombinant HIV-1 protease (final concentration 2.18 nM) purchased from Bachem Bioscience; purchased Bachem Bioscience
Experiment: Enzymatic fluorometric (FRET) assay for determining the inhibition constant (Ki) against HIV protease
Type: biochemical
Conditions: fluorometric FRET assay, recombinant HIV-1 protease, pH 4.7, 31° C.; read-out: Ki
Catalogue of Ki values

compound: CC(C)CN(C(CCCCNC(=O)OCc1ccccc1)C(=O)OCc1ccccc1)S(=O)(=O)C=Cc1ccccc1 (stereo not shown)
relationOperator: >
Ki [nM]: 1250
//
compound: Cc1ccc(S(=O)(=O)N(CC(C)C)C(CCCCNC(=O)c2cc3ccccc3[nH]2)C(=O)O)cc1 (stereo not shown)
relationOperator: >
Ki [nM]: 625
//
compound: CC(C)CN(C(CCCCNC(=O)OCC1c2ccccc2-c2ccccc21)C(=O)O)S(=O)(=O)c1ccc(F)cc1 (racemic)
relationOperator: =
Ki [nM]: 17.4
//
compound: O=C(N[C@@H](CCCCNS(=O)(=O)c1ccc(Br)cc1)C(=O)O)c1ccccc1
relationOperator: >
Ki [nM]: 50000
//
compound: O=C(N[C@@H](CCCNS(=O)(=O)c1ccc([N+](=O)[O-])cc1)C(=O)O)OCC1c2ccccc2-c2ccccc21
relationOperator: =
Ki [nM]: 26200
//
compound: CC(C)CN([C@@H](CCCCNC(=O)C1c2ccccc2Oc2ccccc21)C(=O)O)S(=O)(=O)c1ccc([N+](=O)[O-])cc1
relationOperator: =
Ki [nM]: 43.9
//
compound: COc1ccccc1/C=C\C(=O)NCCCC[C@@H](C(=O)O)N(CC(C)C)S(=O)(=O)c1ccc([N+](=O)[O-])cc1
relationOperator: =
Ki [nM]: 39.8

----------
Target: recombinant HIV-1 protease (Human immunodeficiency virus type 1 group M subtype B)
Construct: recombinant HIV-1 protease (final concentration 2.18 nM) purchased from Bachem Bioscience; purchased Bachem Bioscience
Assay: Enzymatic fluorometric (FRET) assay for determining the inhibition constant (Ki) against HIV protease
Assay type: biochemical
Conditions: fluorometric FRET assay, recombinant HIV-1 protease, pH 4.7, 31° C.; read-out: Ki
pKi: −log10 of the molar value.
Catalogue of pKi values

structureSmilesString: CC(C)(C)OC(=O)N[C@@H](CCCCNS(=O)(=O)c1ccc(Br)cc1)C(=O)O
pKi: 3.18
//
structureSmilesString: O=C(CC1c2ccccc2-c2ccccc21)N[C@@H](CCCCNS(=O)(=O)c1ccc(Br)cc1)C(=O)O
pKi: 4.15
//
structureSmilesString: O=C(N[C@@H](CCNS(=O)(=O)c1ccc(Br)cc1)C(=O)O)OCC1c2ccccc2-c2ccccc21
pKi: 4.31
//
structureSmilesString: O=C(N[C@@H](CCCCNS(=O)(=O)Cc1ccccc1)C(=O)O)OCC1c2ccccc2-c2ccccc21
pKi: 4.70
//
structureSmilesString: CC(C)CN([C@@H](CCCCNC(=O)OCC1c2ccccc2-c2ccccc21)C(=O)O)S(=O)(=O)c1cccc2ccccc12
pKi: 7.26
//
structureSmilesString: CC1(C)[C@@H]2CC[C@@]1(CS(=O)(=O)NCCCC[C@H](NC(=O)OCC1c3ccccc3-c3ccccc31)C(=O)O)C(=O)C2
pKi: 4.48
//
structureSmilesString: O=C(N[C@@H](CCCCNS(=O)(=O)c1ccc(Br)cc1)C(=O)O)OCC1c2ccccc2-c2ccccc21
pKi: 4.89

----------
Catalogue of pKi values
Target: recombinant HIV-1 protease (Human immunodeficiency virus type 1 group M subtype B)
Construct: recombinant HIV-1 protease (final concentration 2.18 nM) purchased from Bachem Bioscience; purchased Bachem Bioscience
Experiment: Enzymatic fluorometric (FRET) assay for determining the inhibition constant (Ki) against HIV protease
Format: biochemical
Settings: fluorometric FRET assay, recombinant HIV-1 protease, pH 4.7, 31° C.; read-out: Ki
pKi: −log10 of the molar value.

compound: CC(C)(C)OC(=O)N[C@@H](CCCNC(=O)OCc1ccccc1)C(=O)O [Compound 137]
subjectOfTest: recombinant HIV-1 protease (Human immunodeficiency virus type 1 group M subtype B)
pKi: < 3.70
--
compound: O=C(N[C@@H](CCCCNS(=O)(=O)c1ccc(Br)cc1)C(=O)O)c1cnc2cc(C(F)(F)F)ccc2c1O [Compound 23]
subjectOfTest: recombinant HIV-1 protease (Human immunodeficiency virus type 1 group M subtype B)
pKi: < 4.30
--
compound: COc1ccccc1/C=C/C(=O)NCCCC[C@@H](C(=O)O)N(CC(C)C)S(=O)(=O)c1ccc([N+](=O)[O-])cc1 [Compound 161]
subjectOfTest: recombinant HIV-1 protease (Human immunodeficiency virus type 1 group M subtype B)
pKi: < 6.52
--
compound: CC(C)CN([C@@H](CCCCNS(=O)(=O)Cc1ccccc1)C(=O)O)S(=O)(=O)c1ccc([N+](=O)[O-])cc1 [Compound 115]
subjectOfTest: recombinant HIV-1 protease (Human immunodeficiency virus type 1 group M subtype B)
pKi: < 6.52
